Molecular target: AHR (Homo sapiens)
Construct: endogenous in cells; host or cells: HepG2 (human), transfected with a DRE-luciferase reporter only
Sequence (P35869 11-848): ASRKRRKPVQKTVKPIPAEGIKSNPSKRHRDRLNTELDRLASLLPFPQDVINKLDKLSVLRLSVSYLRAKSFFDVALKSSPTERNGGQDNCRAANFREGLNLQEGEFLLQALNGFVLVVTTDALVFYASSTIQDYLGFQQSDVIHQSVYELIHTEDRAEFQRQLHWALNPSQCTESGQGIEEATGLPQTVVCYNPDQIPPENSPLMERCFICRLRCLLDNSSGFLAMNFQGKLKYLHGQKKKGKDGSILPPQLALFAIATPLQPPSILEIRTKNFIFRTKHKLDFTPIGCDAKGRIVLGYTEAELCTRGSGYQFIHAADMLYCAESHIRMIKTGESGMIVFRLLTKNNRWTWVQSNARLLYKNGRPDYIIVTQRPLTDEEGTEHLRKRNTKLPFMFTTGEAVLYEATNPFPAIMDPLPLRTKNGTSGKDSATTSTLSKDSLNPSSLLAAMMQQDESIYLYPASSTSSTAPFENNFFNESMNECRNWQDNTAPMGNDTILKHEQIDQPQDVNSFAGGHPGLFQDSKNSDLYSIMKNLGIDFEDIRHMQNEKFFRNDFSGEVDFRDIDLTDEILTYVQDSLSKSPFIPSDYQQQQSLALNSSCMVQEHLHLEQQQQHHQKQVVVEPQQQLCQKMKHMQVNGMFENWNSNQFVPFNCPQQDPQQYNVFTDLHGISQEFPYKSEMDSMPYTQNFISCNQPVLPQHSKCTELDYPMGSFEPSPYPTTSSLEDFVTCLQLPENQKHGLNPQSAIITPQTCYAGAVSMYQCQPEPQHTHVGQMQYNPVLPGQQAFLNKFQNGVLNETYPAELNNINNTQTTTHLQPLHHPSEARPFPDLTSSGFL
Test: DRE-Luciferase Reporter Assay, HepG2 (agonist)
Format: cell-based
Settings: HepG2, Table 2; read-out: DRE-Luc HepG2 - Agonist: Average EC50
Parameter: EC50

Briefly, EC50 measured for Clc1cccc(-c2csc(Nc3cccnc3)n2)c1 : 0.01 to 0.1 µM

Briefly, EC50 measured for C[N+](C)(C)CCOc1ccc(-c2cnc(Nc3ccc(C(F)(F)F)cc3)o2)cc1 : > 1 µM

Briefly, EC50 measured for Oc1cccc(-c2cnc(Nc3ccc(C(F)(F)F)cc3)o2)c1 : > 1 µM

Briefly, EC50 measured for Oc1ccccc1-c1cnc(Nc2ccc(C(F)(F)F)cc2)o1 : > 1 µM

Briefly, EC50 measured for C[N+](C)(C)CCC(=O)Nc1cccc(-c2csc(Nc3cccc(C(F)(F)F)c3)n2)c1 : 0.1 to 1 µM

Briefly, EC50 measured for CN(CCOCCN(c1cccc(C(F)(F)F)c1)c1nc(-c2cccc(Cl)c2)cs1)CC(=O)O : 0.1 to 1 µM

Briefly, EC50 measured for FC(F)(F)c1ccc(Nc2nnc(-c3cccc(Cl)c3)[nH]2)cc1 : > 1 µM

Briefly, EC50 measured for C[N+]1(CCNC(=O)N(c2cccc(C(F)(F)F)c2)c2nc(-c3cccc(Cl)c3)cs2)CCCCC1 : 0.01 to 0.1 µM

Briefly, EC50 measured for FC(F)(F)c1cncc(Nc2nc(-c3cccc(Cl)c3)cs2)c1 : < 0.01 µM

Briefly, EC50 measured for CN(C)C(=O)c1cccc(-c2csc(Nc3cccc(C(F)(F)F)c3)n2)c1 : > 1 µM

Briefly, EC50 measured for O=[N+]([O-])c1ccc(-c2csc(Nc3cccc(C(F)(F)F)c3)n2)cc1 : < 0.01 µM

Briefly, EC50 measured for FC(F)(F)c1cccc(Nc2nc(-c3ccc(Cl)c(Cl)c3)cs2)c1 : < 0.01 µM

Briefly, EC50 measured for Cc1c(-c2csc(Nc3cccc(C(F)(F)F)c3)n2)cccc1[N+](=O)[O-] : < 0.01 µM

Briefly, EC50 measured for C[N+](C)(C)CCNC(=O)N(c1cccc(C(F)(F)F)c1)c1nc(-c2cccc(Cl)c2)cs1 : < 0.01 µM

Briefly, EC50 measured for O=[N+]([O-])c1ccccc1-c1csc(Nc2cccc(C(F)(F)F)c2)n1 : > 1 µM
